Test: amyloid nucleation score (Sup35N fusion, yeast selection) (log enrichment); library NNK1; higher = more nucleation; inactive = no reads after selection;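 note: zero at mode of non-aggregating sequences after 7 days selection at 30°C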
readout.kind: amyloid nucleation score
API doc: respond with a numeric literal and nothing else, no unit.

Task: Query (sequence): `FHTRVKEWVGPAFLGSANLG` ; field requested: amyloid nucleation score
Result: 0.25

Task: Consider the sequence shown here: `DGQPLLMGEHYSLGITLM` What is its recorded amyloid nucleation score?
Result: 1.1

Task: Which value of amyloid nucleation score has been reported for `GNSRQYAFNRQIHMSSGESR` in the records?
Result: -0.535

Task: What does the record list as amyloid nucleation score for `SSYVPSCCYWAVWFCVRGKY` ?
Result: 1.58

Task: Look at this sequence and give its reported amyloid nucleation score. `AIDIYGYLRFPCWLRVLFT`
Result: -1.06

Task: Param item = `FIEHTYVEEG` ; retrieve measured amyloid nucleation score.
Result: 0.19

Task: What value of amyloid nucleation score has been reported for the following sequence? `TMYPLIRLYGSMSRNETGEW`
Result: 0.437

Task: Could you share which amyloid nucleation score value was measured for `VGRNQNKTDEG` ?
Result: 0.564

Task: Can you share its amyloid nucleation score? I mean this sequence: `CPRHVALGHLNYLGQDFDLK`
Result: 0.326

Task: Look up amyloid nucleation score: `YNSEGDRLESNESWDWMARR`
Result: 0.511

Task: # query: amyloid nucleation score of entry `DVFIGMMLRACNVLHSGWFS`
Result: 0.18

Task: I have this sequence here, `KIRRGCMLLGQHVWTT` , and I need its recorded amyloid nucleation score.
Result: 0.207

Task: Can you look up the measured amyloid nucleation score of `DSVVFSWVTYNTSSLSYHCG` for me?
Result: 2.41

Task: Recorded amyloid nucleation score for `LGMGLTKLLSNYMSGIIVPL` , please?
Result: -0.047

Task: Which amyloid nucleation score value is on record for `HGKFRHLSCTASSNEVEGNN` ?
Result: 1.17

Task: Please give the measured amyloid nucleation score for this sequence: `SWQSVSSAISV`
Result: -0.234

Task: Form field: reported amyloid nucleation score of `IHRLSARCRLNI`
Result: 0.657
